Value source: the supplement of paper PMC10126150

# Tested on: ATP;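 also: ATP exposure 15 min at 22 °C before imaging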
# Experiment: switch fluorescence ratio, 500 uM ATP over buffer (Cy3 cluster intensity, sum of 5 cycles each) (fold (ratio)); higher = stronger signal-on switching upon ATP binding; sequences stand for … in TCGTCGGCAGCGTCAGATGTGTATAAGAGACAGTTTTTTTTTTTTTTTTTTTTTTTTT…TC
# Condition Description: aptamer strand: ATP DNA aptamer (quencher-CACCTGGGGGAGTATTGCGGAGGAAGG + anchor), 100 nM annealed; ATP concentration: 500 uM
Recorded Endpoint: switch fluorescence ratio
The answer should be written as a number, with no unit following it.

These recorded examples may help you get a feel for the data.
Given item GTTGATCAT , the value recorded as its switch fluorescence ratio is 0.983

Given item ACTTGGACTG , the value recorded as its switch fluorescence ratio is 1.03

Given item ATTAGCTGGT , the value recorded as its switch fluorescence ratio is 0.952

Given item GATTTTTATC , the value recorded as its switch fluorescence ratio is 1.02

Given item TAAGAGGA , the value recorded as its switch fluorescence ratio is 0.991

Continuing:
Given item CAGGGGGGTT , the value recorded as its switch fluorescence ratio is 1.09

Given item TGGAAGCCGG , the value recorded as its switch fluorescence ratio is 0.957

----------
Reported switch fluorescence ratio values follow for various sequences
# Test system: ATP;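 also: ATP exposure 15 min at 22 °C before imaging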
# Experiment: switch fluorescence ratio, 500 uM ATP over buffer (Cy3 cluster intensity, sum of 5 cycles each) (fold (ratio)); higher = stronger signal-on switching upon ATP binding; sequences stand for … in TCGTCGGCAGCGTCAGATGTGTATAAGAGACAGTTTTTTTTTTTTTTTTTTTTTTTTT…TC
# Condition Description: aptamer strand: ATP DNA aptamer (quencher-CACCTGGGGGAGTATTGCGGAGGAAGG + anchor), 100 nM annealed; ATP concentration: 500 uM
The answer should be written as a number, with no unit following it.

These recorded examples may help you get a feel for the data.
Given item GGAGACCGCT , the value recorded as its switch fluorescence ratio is 1.02

Given item ATTTGTGTTT , the value recorded as its switch fluorescence ratio is 0.993

Given item ATCAACTTAT , the value recorded as its switch fluorescence ratio is 1.02

Given item TTTTGCCTAT , the value recorded as its switch fluorescence ratio is 1

Given item GGTTTTTCGT , the value recorded as its switch fluorescence ratio is 0.977

Continuing:
Given item CACGTTTCCT , the value recorded as its switch fluorescence ratio is 1.1

Given item TATTATTGCG , the value recorded as its switch fluorescence ratio is 0.988

Given item CGTGTGGTCG , the value recorded as its switch fluorescence ratio is 0.933

Given item ACAGAAAGAC , the value recorded as its switch fluorescence ratio is 1.15

Given item ACGCGCGGAA , the value recorded as its switch fluorescence ratio is 1.01

Given item GGTACTCGGG , the value recorded as its switch fluorescence ratio is 0.961

Given item TTTTACCAG , the value recorded as its switch fluorescence ratio is 1.02

Given item AAATGGTGAT , the value recorded as its switch fluorescence ratio is 1.04

Given item GAACTCCGGG , the value recorded as its switch fluorescence ratio is 1.1

Given item GACGATGCGG , the value recorded as its switch fluorescence ratio is 1.2

Given item GGGGAAAAGC , the value recorded as its switch fluorescence ratio is 1.04

Given item GCGTGTGGGC , the value recorded as its switch fluorescence ratio is 1.07

Given item GATGTGGTGT , the value recorded as its switch fluorescence ratio is 0.984

Given item GGATGTATAG , the value recorded as its switch fluorescence ratio is 0.997

Given item AAATGGTTGG , the value recorded as its switch fluorescence ratio is 0.995

Given item CTGCCCTATT , the value recorded as its switch fluorescence ratio is 1

----------
Reported switch fluorescence ratio values follow for various sequences
# Tested on: ATP;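 also: ATP exposure 15 min at 22 °C before imaging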
# Experiment: switch fluorescence ratio, 500 uM ATP over buffer (Cy3 cluster intensity, sum of 5 cycles each) (fold (ratio)); higher = stronger signal-on switching upon ATP binding; sequences stand for … in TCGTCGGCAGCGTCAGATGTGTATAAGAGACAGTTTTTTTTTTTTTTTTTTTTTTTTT…TC
# Condition Description: aptamer strand: ATP DNA aptamer (quencher-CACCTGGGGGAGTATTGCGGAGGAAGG + anchor), 100 nM annealed; ATP concentration: 500 uM

Given item AACCCGCACC , the value recorded as its switch fluorescence ratio is 2.75

Given item TGGAGGGAGG , the value recorded as its switch fluorescence ratio is 1.01

Given item AGTGAGTTTT , the value recorded as its switch fluorescence ratio is 1.03

Given item ACTGTCGTCT , the value recorded as its switch fluorescence ratio is 1.04

Given item TTGTTATGTA , the value recorded as its switch fluorescence ratio is 0.982

Continuing:
Given item AGCGGAAGAA , the value recorded as its switch fluorescence ratio is 1.02

Given item CGTCGAATAT , the value recorded as its switch fluorescence ratio is 1.02

----------
# Test system: ATP;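 also: ATP exposure 15 min at 22 °C before imaging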
# Experiment: switch fluorescence ratio, 500 uM ATP over buffer (Cy3 cluster intensity, sum of 5 cycles each) (fold (ratio)); higher = stronger signal-on switching upon ATP binding; sequences stand for … in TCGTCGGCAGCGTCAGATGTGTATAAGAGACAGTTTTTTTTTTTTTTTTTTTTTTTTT…TC
# Condition Description: aptamer strand: ATP DNA aptamer (quencher-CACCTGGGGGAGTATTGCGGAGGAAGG + anchor), 100 nM annealed; ATP concentration: 500 uM
Reported switch fluorescence ratio values follow for various sequences
The answer should be written as a number, with no unit following it.

These recorded examples may help you get a feel for the data.
Given item GCAGGTTGAC , the value recorded as its switch fluorescence ratio is 1.03

Given item TCGGTAGGGG , the value recorded as its switch fluorescence ratio is 0.999

Given item CAATACGGGG , the value recorded as its switch fluorescence ratio is 1.13

Given item CGTTGGAAGA , the value recorded as its switch fluorescence ratio is 1.02

Given item GATGGGAAAA , the value recorded as its switch fluorescence ratio is 1.01

Here is another sequence to look at.
Given item ATAGGGCCTT , the value recorded as its switch fluorescence ratio is 1.02

----------
Reported switch fluorescence ratio values follow for various sequences
# Test system: ATP;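 also: ATP exposure 15 min at 22 °C before imaging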
# Experiment: switch fluorescence ratio, 500 uM ATP over buffer (Cy3 cluster intensity, sum of 5 cycles each) (fold (ratio)); higher = stronger signal-on switching upon ATP binding; sequences stand for … in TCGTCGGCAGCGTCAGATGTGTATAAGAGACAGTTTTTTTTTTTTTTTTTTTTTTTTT…TC
# Condition Description: aptamer strand: ATP DNA aptamer (quencher-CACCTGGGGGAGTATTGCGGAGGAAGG + anchor), 100 nM annealed; ATP concentration: 500 uM
The answer should be written as a number, with no unit following it.

Given item TTTTGAAGTA , the value recorded as its switch fluorescence ratio is 1.02

Given item GTTTGCAACG , the value recorded as its switch fluorescence ratio is 0.986

Given item AAAGTGTGTT , the value recorded as its switch fluorescence ratio is 0.993

Given item GTGGTTGGCA , the value recorded as its switch fluorescence ratio is 0.968

Given item TGGGAAAAGA , the value recorded as its switch fluorescence ratio is 0.983

Given item CCACTATTCT , the value recorded as its switch fluorescence ratio is 1

Continuing:
Given item TTTGAAGTCT , the value recorded as its switch fluorescence ratio is 0.978

Given item AACTTTAGTA , the value recorded as its switch fluorescence ratio is 1

Given item CTAGGTCTGT , the value recorded as its switch fluorescence ratio is 1

Given item AAGTTGTGCT , the value recorded as its switch fluorescence ratio is 0.972

Given item GGCGGTATGT , the value recorded as its switch fluorescence ratio is 0.975

Given item TGGGGGGACA , the value recorded as its switch fluorescence ratio is 0.985

----------
# Tested on: ATP;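 also: ATP exposure 15 min at 22 °C before imaging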
# Experiment: switch fluorescence ratio, 500 uM ATP over buffer (Cy3 cluster intensity, sum of 5 cycles each) (fold (ratio)); higher = stronger signal-on switching upon ATP binding; sequences stand for … in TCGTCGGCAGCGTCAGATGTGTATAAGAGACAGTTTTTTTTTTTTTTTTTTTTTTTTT…TC
# Condition Description: aptamer strand: ATP DNA aptamer (quencher-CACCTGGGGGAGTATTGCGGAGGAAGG + anchor), 100 nM annealed; ATP concentration: 500 uM
Reported switch fluorescence ratio values follow for various sequences
The answer should be written as a number, with no unit following it.

Given item TTTCTCGG , the value recorded as its switch fluorescence ratio is 1.07

Given item TGTGGTTAGG , the value recorded as its switch fluorescence ratio is 0.993

Given item TATGATCTGT , the value recorded as its switch fluorescence ratio is 0.979

Given item CGATGCAGTT , the value recorded as its switch fluorescence ratio is 1.05

Given item AGCTGTCTCA , the value recorded as its switch fluorescence ratio is 0.991

Given item TGGGTGGAGG , the value recorded as its switch fluorescence ratio is 1.02

Given item TCGGGAGTAC , the value recorded as its switch fluorescence ratio is 1.01

Given item TTTTGAAGAT , the value recorded as its switch fluorescence ratio is 1.01

Given item CGAAGGATCT , the value recorded as its switch fluorescence ratio is 1.02

Given item CGAGACAGGG , the value recorded as its switch fluorescence ratio is 1
